Listed below: pKd values for each entry.
target-entity: T1, human Fibroblast Activation Protein (FAP), soluble antigen (human, UniProt Q12884 26-760, biotinylated when immobilized on streptavidin sensors)
T1 construct: also called hFAP; biotinylated FAP
T1 sequence (Q12884 26-760 limits assumed): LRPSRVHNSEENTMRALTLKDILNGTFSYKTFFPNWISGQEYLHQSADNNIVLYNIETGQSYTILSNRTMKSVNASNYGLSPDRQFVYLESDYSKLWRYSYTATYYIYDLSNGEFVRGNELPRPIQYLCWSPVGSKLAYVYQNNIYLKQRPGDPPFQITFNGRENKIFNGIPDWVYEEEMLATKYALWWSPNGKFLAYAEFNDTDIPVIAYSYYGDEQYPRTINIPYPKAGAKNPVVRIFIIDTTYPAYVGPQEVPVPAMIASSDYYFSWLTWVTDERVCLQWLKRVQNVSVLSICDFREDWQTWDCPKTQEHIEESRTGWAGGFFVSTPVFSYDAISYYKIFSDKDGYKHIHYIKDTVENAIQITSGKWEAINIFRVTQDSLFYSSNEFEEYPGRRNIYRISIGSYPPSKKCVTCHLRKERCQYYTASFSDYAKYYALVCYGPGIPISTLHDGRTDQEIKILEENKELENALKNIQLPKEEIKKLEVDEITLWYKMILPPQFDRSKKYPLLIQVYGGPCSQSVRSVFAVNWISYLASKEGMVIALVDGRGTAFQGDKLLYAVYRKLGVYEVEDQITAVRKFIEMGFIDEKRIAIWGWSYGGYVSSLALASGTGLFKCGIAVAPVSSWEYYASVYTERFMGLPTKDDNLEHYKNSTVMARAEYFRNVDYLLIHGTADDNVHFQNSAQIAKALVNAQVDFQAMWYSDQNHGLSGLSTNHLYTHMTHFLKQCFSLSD
procedure-summary: BLI per 6.1.3
pKd: −log10 of the molar value.
endpoint-name: pKd

1. D029 HV2LV4 (bispecific antibody, V domains shown, also called Rev1-Q27G:P94Y/S55L:S32F) VH: EVQLVESGGGLVQPGGSLRLSCAASGFTFTWFFMSWVRQAPGKGLEWVSWIGPSGLYTDYADSVKGRFTISRDNSKNTLYLQMNSLRAEDTAVYYCARSQYGRYYSPDYYFDYWGQGTLVTVSS VL: DIQMTQSPSSLSASVGDRVTITCRASGALGFYLNWYQQKPGKAPKLLIYAASSLSSGVPSRFSGSGSGTDFTLTISSLQPEDFATYYCQQGRTYPLTFGQGTKVEIKR    8.82
2. D029 HV3LV2 (bispecific antibody, V domains shown, also called D029L-Rev1:Q27G:P94Y:L96F/S55L:T30R:S32F) VH: EVQLVESGGGLVQPGGSLRLSCAASGFTFRWFFMSWVRQAPGKGLEWVSWIGPSGLYTDYADSVKGRFTISRDNSKNTLYLQMNSLRAEDTAVYYCARSQYGRYYSPDYYFDYWGQGTLVTVSS VL: DIQMTQSPSSLSASVGDRVTITCRASGALGFYLNWYQQKPGKAPKLLIYAASSLSSGVPSRFSGSGSGTDFTLTISSLQPEDFATYYCQQGRTYPFTFGQGTKVEIKR    8.45
3. D029 HV2LV3 (bispecific antibody, V domains shown, also called Rev1-Q27G:L96F/S55L:S32F; two-in-one antibody within FB-675) VH: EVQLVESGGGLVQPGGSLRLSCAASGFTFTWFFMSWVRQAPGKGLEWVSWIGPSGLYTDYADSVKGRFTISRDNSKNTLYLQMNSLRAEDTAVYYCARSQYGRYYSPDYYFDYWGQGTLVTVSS VL: DIQMTQSPSSLSASVGDRVTITCRASGALGFYLNWYQQKPGKAPKLLIYAASSLSSGVPSRFSGSGSGTDFTLTISSLQPEDFATYYCQQGRTPPFTFGQGTKVEIKR    8.44
